# SYSTEM: Hb (Drosophila melanogaster, UniProt P05084 225-364)
# Sequence: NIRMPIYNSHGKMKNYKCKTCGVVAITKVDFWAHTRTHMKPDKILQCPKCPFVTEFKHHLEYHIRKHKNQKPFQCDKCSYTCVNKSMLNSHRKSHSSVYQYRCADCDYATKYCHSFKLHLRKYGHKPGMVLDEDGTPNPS
# ASSAY PROTOCOL: FP; 33 mM phosphate pH 7.0, 90 mM NaCl, 0.01% Tween 20, 0.1 mM DTT, 0.5% agarose; room temperature
# EXPERIMENTAL CONTEXT: tags: N-GST (pGEX-6P-1, kept); dsDNA, one strand shown
List of binding signal values.

>  <SEQ STRING>
AGTTTTCTAGGC

>  <binding signal>
15 Kd / Kd of best base at the position

$$$$
>  <SEQ STRING>
AGTTTTATAGGC

>  <binding signal>
9.8 Kd / Kd of best base at the position

$$$$
>  <SEQ STRING>
AGTTTATTAGGC

>  <binding signal>
11 Kd / Kd of best base at the position

$$$$
